pIC50 values for the molecules below.
# Assayed system: PI3Kβ (Homo sapiens, UniProt P42338)
# Construct: endogenous in cells
# Sequence (P42338 whole entry): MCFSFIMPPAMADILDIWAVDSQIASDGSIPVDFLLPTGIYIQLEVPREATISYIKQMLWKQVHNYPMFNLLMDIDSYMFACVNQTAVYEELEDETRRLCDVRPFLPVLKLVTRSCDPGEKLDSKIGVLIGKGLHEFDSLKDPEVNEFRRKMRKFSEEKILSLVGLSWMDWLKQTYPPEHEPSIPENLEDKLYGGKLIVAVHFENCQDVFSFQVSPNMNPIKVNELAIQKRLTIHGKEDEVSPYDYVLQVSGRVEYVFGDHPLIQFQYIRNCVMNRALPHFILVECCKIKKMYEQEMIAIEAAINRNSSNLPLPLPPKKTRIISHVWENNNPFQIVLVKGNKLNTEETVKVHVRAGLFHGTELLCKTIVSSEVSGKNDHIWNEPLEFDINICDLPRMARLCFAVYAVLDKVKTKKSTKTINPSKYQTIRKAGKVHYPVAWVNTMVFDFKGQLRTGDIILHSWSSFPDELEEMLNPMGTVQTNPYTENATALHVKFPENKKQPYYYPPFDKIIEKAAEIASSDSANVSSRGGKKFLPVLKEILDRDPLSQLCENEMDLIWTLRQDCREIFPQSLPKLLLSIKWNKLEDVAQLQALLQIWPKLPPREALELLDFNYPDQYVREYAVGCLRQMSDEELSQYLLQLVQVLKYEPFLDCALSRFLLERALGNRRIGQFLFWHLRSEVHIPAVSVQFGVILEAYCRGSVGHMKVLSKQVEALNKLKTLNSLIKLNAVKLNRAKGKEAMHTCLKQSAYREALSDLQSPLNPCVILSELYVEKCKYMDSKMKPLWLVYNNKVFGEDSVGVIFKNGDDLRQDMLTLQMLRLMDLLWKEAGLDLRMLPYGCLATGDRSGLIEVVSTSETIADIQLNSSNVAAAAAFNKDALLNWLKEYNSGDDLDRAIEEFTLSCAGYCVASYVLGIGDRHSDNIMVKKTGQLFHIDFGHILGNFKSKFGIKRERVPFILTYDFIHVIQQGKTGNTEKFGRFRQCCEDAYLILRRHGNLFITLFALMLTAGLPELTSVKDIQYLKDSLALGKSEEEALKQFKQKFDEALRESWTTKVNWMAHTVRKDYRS
# Sequence (P27986 whole entry partner): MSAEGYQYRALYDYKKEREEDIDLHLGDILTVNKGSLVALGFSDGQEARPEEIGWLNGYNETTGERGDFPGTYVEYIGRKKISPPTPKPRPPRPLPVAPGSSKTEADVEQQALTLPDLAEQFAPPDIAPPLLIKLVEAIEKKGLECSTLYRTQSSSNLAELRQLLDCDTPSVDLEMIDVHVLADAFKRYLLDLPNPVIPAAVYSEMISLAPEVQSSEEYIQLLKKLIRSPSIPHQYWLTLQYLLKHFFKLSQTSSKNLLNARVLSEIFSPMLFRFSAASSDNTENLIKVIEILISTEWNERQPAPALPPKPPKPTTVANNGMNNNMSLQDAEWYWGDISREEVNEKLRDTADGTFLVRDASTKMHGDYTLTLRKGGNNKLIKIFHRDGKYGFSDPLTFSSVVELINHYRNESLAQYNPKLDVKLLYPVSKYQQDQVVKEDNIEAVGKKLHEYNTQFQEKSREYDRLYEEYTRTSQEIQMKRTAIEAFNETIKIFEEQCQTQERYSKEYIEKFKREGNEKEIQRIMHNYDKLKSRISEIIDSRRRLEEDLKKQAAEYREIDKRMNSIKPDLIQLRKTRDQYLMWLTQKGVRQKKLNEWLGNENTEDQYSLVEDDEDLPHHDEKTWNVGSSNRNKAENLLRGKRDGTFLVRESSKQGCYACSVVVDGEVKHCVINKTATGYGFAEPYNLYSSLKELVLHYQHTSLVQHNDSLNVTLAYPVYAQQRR
# Assay method text: kinobeads assay, PI3K beta (dot blot detection)
# Reported conditions: Table 4, read-out: Inhibition values (IC50) PI3Kb
pIC50: −log10 of the molar value.

{"Compound string": "CNC(=O)Nc1ccc(-c2ccnc(N3CCOCC3)n2)cc1", "pIC50": "5.00 to 6.00"}

(Q) Which measured pIC50 value corresponds to C[C@H]1COCCN1c1cc(-c2cncc(F)c2)nc(-c2ccc(NC(=O)NCCO)cc2F)n1 ?
(A) ≤ 5.00

(Q) pIC50 for CCNC(=O)Nc1ccc(-c2cc(-c3cc(F)ccc3S(C)(=O)=O)nc(N3CCOC[C@@H]3C)n2)cc1 ?
(A) ≤ 5.00

(Q) Value lookup for pIC50; key = CCNC(=O)Nc1ccc(-c2ccnc(N3CCOCC3)n2)cc1
(A) 5.00 to 6.00

* * *

# Assayed system: kinases (kinome) (Homo sapiens)
# Construct: determined in kinobeads assays with mass spectrometry detection of kinases as described previously; endogenous in cells
# Assay method text: kinobeads assay with mass spectrometry detection of kinases (kinase selectivity profile)
# Reported conditions: TGFbR1 (TKL), IPI00005733
Examples of compounds with documented IC50 follow.

{"Compound string": "C[C@H]1COCCN1c1nc(-c2ccc(NC(=O)N[C@H]3CCC[C@@H]3O)cc2)cc(-c2cc(F)ccc2S(C)(=O)=O)n1", "Assay result": "> 10 µM"}

(Q) Item under review: C[C@H]1COCCN1c1cc(-c2ccccn2)nc(-c2ccc(NC(=O)NCCO)cc2)n1 . Reported IC50?
(A) > 10 µM

(Q) GET /values?readout=IC50&item= CCNC(=O)Nc1ccc(-c2cc(-c3ccccc3C#N)nc(N3CCOC[C@@H]3C)n2)cc1
(A) > 10 µM

* * *

Known pIC50 of a selection of compounds
# Assayed system: kinases (kinome) (Homo sapiens, UniProt Q16584)
# Construct: determined in kinobeads assays with mass spectrometry detection of kinases as described previously; endogenous in cells
# Sequence (Q16584 whole entry): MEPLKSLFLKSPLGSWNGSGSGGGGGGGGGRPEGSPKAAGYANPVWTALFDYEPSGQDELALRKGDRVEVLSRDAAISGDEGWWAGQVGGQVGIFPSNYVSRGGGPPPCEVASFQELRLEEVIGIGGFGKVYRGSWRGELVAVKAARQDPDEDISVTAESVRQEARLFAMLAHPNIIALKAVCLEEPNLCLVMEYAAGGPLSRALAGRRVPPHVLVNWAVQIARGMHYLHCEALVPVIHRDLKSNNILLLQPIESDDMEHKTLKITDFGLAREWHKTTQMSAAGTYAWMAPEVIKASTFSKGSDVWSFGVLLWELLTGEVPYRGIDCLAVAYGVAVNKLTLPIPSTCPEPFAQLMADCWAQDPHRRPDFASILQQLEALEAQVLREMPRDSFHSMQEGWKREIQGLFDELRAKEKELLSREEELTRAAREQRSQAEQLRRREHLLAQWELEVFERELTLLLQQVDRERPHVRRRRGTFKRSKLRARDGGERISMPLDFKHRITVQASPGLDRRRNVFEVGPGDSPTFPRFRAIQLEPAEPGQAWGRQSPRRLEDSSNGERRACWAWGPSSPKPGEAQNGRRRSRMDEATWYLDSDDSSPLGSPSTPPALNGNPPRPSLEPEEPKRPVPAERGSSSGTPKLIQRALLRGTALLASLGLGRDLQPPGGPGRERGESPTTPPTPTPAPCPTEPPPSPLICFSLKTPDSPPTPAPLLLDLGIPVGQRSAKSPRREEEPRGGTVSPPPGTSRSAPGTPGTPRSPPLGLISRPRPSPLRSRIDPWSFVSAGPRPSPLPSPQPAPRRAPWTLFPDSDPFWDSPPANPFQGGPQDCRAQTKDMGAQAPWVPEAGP
# Assay method text: kinobeads assay with mass spectrometry detection of kinases (kinase selectivity profile)
# Reported conditions: MLK3 (TKL), IPI00000977
pIC50: −log10 of the molar value.

Some solved entries appear below for comparison.
{"Compound": "C[C@H]1COCCN1c1cc(-c2ccccn2)nc(-c2ccc(NC(=O)NCCO)cc2)n1 [Example 43]", "pIC50": "< 5.00"}
{"Compound": "C[C@H]1COCCN1c1nc(-c2ccc(NC(=O)NC3CC3)cc2)cc(-c2cc(F)ccc2S(C)(=O)=O)n1 [Example 40]", "pIC50": "< 5.00"}
{"Compound": "CCNC(=O)Nc1ccc(-c2cc(-c3ccccc3C#N)nc(N3CCOC[C@@H]3C)n2)cc1 [Example 8]", "pIC50": "< 5.00"}
{"Compound": "C[C@H]1COCCN1c1cc(-c2ccccc2S(C)(=O)=O)nc(-c2ccc(NC(=O)NC3CC3)cc2)n1 [Example 6]", "pIC50": "< 5.00"}

(Q) pIC50 for C[C@H]1COCCN1c1nc(-c2ccc(NC(=O)NC3CC3)cc2)cc(-c2ccccc2S(C)(=O)=O)n1 [Example 4] ?
(A) < 5.00

* * *

# Assayed system: PI3Kγ (Homo sapiens, UniProt P48736)
# Construct: endogenous in cells
# Sequence (P48736 whole entry): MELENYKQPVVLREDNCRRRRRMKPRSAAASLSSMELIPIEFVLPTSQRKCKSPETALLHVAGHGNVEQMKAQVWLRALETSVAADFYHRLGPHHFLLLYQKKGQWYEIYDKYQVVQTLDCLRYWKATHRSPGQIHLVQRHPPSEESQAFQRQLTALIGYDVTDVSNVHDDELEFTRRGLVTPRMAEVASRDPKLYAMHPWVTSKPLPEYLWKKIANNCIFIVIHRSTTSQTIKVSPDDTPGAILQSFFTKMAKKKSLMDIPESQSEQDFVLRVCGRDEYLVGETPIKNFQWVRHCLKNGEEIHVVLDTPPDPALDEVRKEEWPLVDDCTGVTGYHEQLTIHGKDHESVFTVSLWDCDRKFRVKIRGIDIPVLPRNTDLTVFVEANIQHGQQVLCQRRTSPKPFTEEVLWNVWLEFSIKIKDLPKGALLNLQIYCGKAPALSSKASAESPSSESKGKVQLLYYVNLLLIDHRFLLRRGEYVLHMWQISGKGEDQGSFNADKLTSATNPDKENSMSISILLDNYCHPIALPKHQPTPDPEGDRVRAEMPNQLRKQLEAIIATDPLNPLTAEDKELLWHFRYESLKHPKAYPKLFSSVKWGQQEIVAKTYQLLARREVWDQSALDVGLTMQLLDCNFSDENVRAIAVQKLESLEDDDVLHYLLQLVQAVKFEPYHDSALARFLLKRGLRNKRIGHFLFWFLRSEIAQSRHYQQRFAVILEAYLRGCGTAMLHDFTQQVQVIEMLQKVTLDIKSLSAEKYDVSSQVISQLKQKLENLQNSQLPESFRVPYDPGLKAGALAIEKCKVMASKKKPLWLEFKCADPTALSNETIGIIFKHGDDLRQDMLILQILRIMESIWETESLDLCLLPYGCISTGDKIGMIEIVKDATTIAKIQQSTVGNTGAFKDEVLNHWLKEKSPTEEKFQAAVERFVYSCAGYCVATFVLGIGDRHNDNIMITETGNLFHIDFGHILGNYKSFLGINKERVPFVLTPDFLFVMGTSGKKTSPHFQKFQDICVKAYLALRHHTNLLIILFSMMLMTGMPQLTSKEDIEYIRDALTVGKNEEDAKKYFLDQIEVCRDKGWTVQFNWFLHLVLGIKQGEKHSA
# Assay method text: kinobeads assay, PI3K gamma (dot blot detection)
# Reported conditions: Table 4, read-out: Inhibition values (IC50) PI3Kg
pIC50: −log10 of the molar value.
Entries annotated with measured pIC50

// worked examples, pIC50 included
{"Compound": "C[C@H]1COCCN1c1nc(-c2ccc(NC(=O)NC3CC3)cc2)cc(-c2cccnc2[S+](C)[O-])n1 (stereo partly shown)", "Assayed system": "PI3Kγ (Homo sapiens, UniProt P48736)", "Assay result": "≤ 5.00"}
{"Compound": "C[C@H]1COCCN1c1cc(-c2ccncc2)nc(-c2ccc(NC(=O)NC3CC3)cc2)n1", "Assayed system": "PI3Kγ (Homo sapiens, UniProt P48736)", "Assay result": "≤ 5.00"}
{"Compound": "CCNC(=O)Nc1ccc(-c2cc(-c3ccccc3S(=O)(=O)N(C)C)nc(N3CCOC[C@@H]3C)n2)cc1", "Assayed system": "PI3Kγ (Homo sapiens, UniProt P48736)", "Assay result": "≤ 5.00"}

Let us examine a further case.
(Q) Request - read-out pIC50 | tested on PI3Kγ (Homo sapiens, UniProt P48736) | compound C[C@H]1COCCN1c1nc(-c2ccc(NC(=O)NC3CC3)cc2)cc(-c2ccccc2S(=O)(=O)N2CCCC2)n1
(A) ≤ 5.00
